Examples of compounds with documented TGI follow.
# Test system: UO-31 renal
# experimental_details: NCI tumour cell line growth inhibition, 48 h

Example entries begin here.
| compound | val |
| --- | --- |
| C1CN2CCNCCN(CCN1)CC2 | > 100 µM |
| COCCn1cc(-c2csc(-c3c[nH]c4ccc(Br)cc34)n2)c2cccnc21 | > 100 µM |
| CC1=C2C3OC(=O)C(C)C3CCC2(C)C=CC1=Nc1ccccc1 (stereo not given) | > 100 µM |
| O=c1oc2ccc3ccccc3c2cc1-c1nc2ccc([N+](=O)[O-])cc2o1 | > 92.1 µM |

In the following, a different compound is considered.
I am curious: what TGI value has been reported for "Clc1c2ccccc2nc2c1[nH]c1ccccc12" ?
> 100 µM

====

# System: PC-3 prostate
# experimental_details: NCI tumour cell line growth inhibition, 48 h
reported_metric: TGI

| molecule | tgt | TGI |
| --- | --- | --- |
| N#Cc1c(O)c2ccccc2[nH]c1=O | PC-3 prostate | > 100 µM |
| COc1ccc2c(c1OC(C)=O)C1=CC(=O)CCC13CCNC3C2 (centres undefined) | PC-3 prostate | > 100 µM |
| COC1CC(O[C@H]2CC[C@@]3(C)[C@@H](CC[C@]4(O)[C@@H]3CC[C@]3(C)[C@@H](C(C)=O)[C@H](OC(=O)CC(C)C)[C@@H](OC(=O)c5ccccc5)[C@@]34O)C2)OC(C)C1OC1CC(OC)C(OC2OC(C)C(O)C(OC)C2O)C(C)O1 (some centres undefined) | PC-3 prostate | > 25 µM |

API: the following record is the query input.
What value of TGI has been reported for the following molecule? "Cn1c2ccccc2c2c(=O)n(CCCC(=O)OC(=NC3CCCCC3)NC3CCCCC3)c3c(-c4ccccc4)nnn3c21"
> 100 µM

====

# Tested on: NCI-H23 lung
# experimental_details: NCI tumour cell line growth inhibition, 48 h
# reported TGI; entries follow

| compound | val |
| --- | --- |
| O=c1oc2ccc([N+](=O)[O-])cc2cc1Br | > 100 µM |

Entry "Clc1c2ccccc2nc2c1[nH]c1ccccc12" has what TGI?
> 100 µM

Quick one: "COc1ccc2nc(NC(=O)C(=O)NNC(=O)c3ccncc3)sc2c1"
> 100 µM

# repeat for "CCn1ccc(NS(=O)(=O)c2ccc(N)cc2)nc1=O"
> 100 µM

Follow-up item: CCCNC(=O)N1CC(CN2CCN(c3ccccc3)CC2)O/C1=N/C(=O)Nc1ccccc1 (stereo unspecified)
> 100 µM

Another compound to check: "COc1ccc(-c2cc(=O)c3c(O)cc(O)cc3o2)c(OC)c1OC"
> 100 µM

====

# Test system: HCC-2998 colon
# experimental_details: NCI tumour cell line growth inhibition, 48 h
reported_metric: TGI (µM)
Write down the numeric answer in µM and omit the unit.

Worked cases, answers included:
| compound | reported_metric | unit_text | val |
| --- | --- | --- | --- |
| S=C=NC1CCC(c2cc3ccccc3s2)(N2CCCCC2)CC1 (stereo unspecified) | TGI | µM | 3.22 |
| O=C1NC(=S)NC(=O)C1=C/C=C/c1ccc([N+](=O)[O-])cc1 | TGI | µM | 35.7 |

Form field: reported TGI of "COc1cc(/C=C2\C[C@H]3[C@@H]4CC=C5C[C@@H](OC(C)=O)CC[C@]5(C)[C@H]4CC[C@]3(C)[C@H]2OC(C)=O)ccc1OCCN1CCCC1"
15.4
